# Test system: transactivating tegument protein VP16 (Human herpesvirus 1)
# ASSAY NAME: VP16 transactivation reporter inhibitors, counter-screen for SRC2 inhibitor project, cell-based, luminescence, single concentration (AID 652007)
# CONDITION SET: cell-based VP16 transactivation luciferase reporter, at 8.9 µM, active compounds read high
MEASURE: inhibition (%)
Give bare numbers, in %.

Some molecules with recorded inhibition:
- MOLECULE: "CCc1ccc(-c2nc(CSCC(=O)NC3CC3)c(C)o2)cc1"
  STUDY TARGET: "transactivating tegument protein VP16 (Human herpesvirus 1)"
  UNIT NAME: "%"
  inhibition: 47.6
- MOLECULE: "Clc1ccc(-c2csc(=Nc3cccnc3)n2CCCn2ccnc2)cc1Cl"
  STUDY TARGET: "transactivating tegument protein VP16 (Human herpesvirus 1)"
  UNIT NAME: "%"
  inhibition: 15.6
- MOLECULE: "Cc1nc2c(-c3ccccc3)cnn2c(N)c1-c1ccccc1"
  STUDY TARGET: "transactivating tegument protein VP16 (Human herpesvirus 1)"
  UNIT NAME: "%"
  inhibition: 19.9
- MOLECULE: "Cc1cccnc1CN1CCN(C(=O)c2cc(COc3ccc4ncccc4c3)on2)CC1"
  STUDY TARGET: "transactivating tegument protein VP16 (Human herpesvirus 1)"
  UNIT NAME: "%"
  inhibition: 8.23
- MOLECULE: "Cc1cc(C(=O)COC(=O)C2=COCCO2)c(C)n1-c1ccccc1"
  STUDY TARGET: "transactivating tegument protein VP16 (Human herpesvirus 1)"
  UNIT NAME: "%"
  inhibition: 68.8

Hey, can you go through the list below and give me inhibition for every item?
1. Cc1nc2cc(-c3ccccc3)nn2c(C)c1CCC(=O)NCc1ccco1
2. Cc1ccc(C(=O)OCC(=O)NC2CCCC(C)C2C)cc1S(=O)(=O)N1CCCCC1 (configuration not stated)
3. CCCSc1ccc2nc(-c3ccccc3)cn2c1
4. Cc1nc([N+](=O)[O-])c(Sc2nc3ccccc3[nH]2)n1Cc1ccccc1
5. CCC1(O)C(=O)OCc2c1cc1n(c2=O)Cc2cc3cc(O)ccc3nc2-1 (configuration not stated)
6. O=C(NCc1cccnc1)/C(=C\c1ccc(-c2ccc(Cl)c(Cl)c2)o1)S(=O)(=O)c1ccccc1

[-27.7, -10.8, -24.4, -3.82, 24.9, 75.3]

Hey, can you go through the list below and give me inhibition for every item?
1. CC(C)N(C(=O)[C@H]1C[C@H](CC(=O)NCCc2ccccn2)C(=O)N2CCc3c([nH]c4cc(-c5ccco5)ccc34)[C@]12C)C(C)C
2. O=C(Nc1ccc2c(c1)OCCO2)NC1(C(F)(F)F)Oc2ccccc2O1
3. Cc1c(CCC(=O)N[C@@H](C)C(=O)O)c(=O)oc2cc3oc4c(c3cc12)CCCC4
4. Brc1cccc(CSc2nnc(-c3ccncc3)o2)c1
5. COCCn1c(C)cc(C2=NNC(=Nc3ccccc3F)SC2)c1C

[-4.18, -12.8, 38.8, 0.08, 87.2]

###

Would you kindly list activation for each of these molecules?
# STUDY TARGET: Neuropeptide Y receptor type 1 (Homo sapiens)
# ASSAY NAME: NPY-Y1 potentiators or agonists, counter-screen for NPY-Y2 potentiator project, cell-based, fluorescence (AID 1651);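 also: cells stimulated with submaximal NPY then isoproterenol with phosphodiesterase inhibitor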
# CONDITION SET: Y1 HEK293-CNG cells, membrane potential fluorescence; at 3.6 µM; active compounds read high
Some of the results follow.
Numbers only, in %.

Some molecules with recorded activation:
- MOLECULE: "O=C(NC(Nc1nc2ccc([N+](=O)[O-])cc2s1)(C(F)(F)F)C(F)(F)F)c1ccccc1"
  activation, %: -2.54
- MOLECULE: "O=C(Nc1sc2c(c1-c1nc3ccccc3[nH]1)CCCC2)C1CC1"
  activation, %: 30.4
- MOLECULE: "N/C(=N\\S(=O)(=O)c1cc(C(F)(F)F)cc(C(F)(F)F)c1)c1cccs1"
  activation, %: 29.6

Hey, can you go through the list below and give me activation for every item?
1. O=C1NC(c2ccc(-c3ccccc3[N+](=O)[O-])o2)C(C(=O)c2ccc(Cl)cc2)C(O)(C(F)(F)F)N1 (stereo not given)
2. COc1cc(NC(=O)c2ccccc2NS(=O)(=O)c2ccc(Cl)s2)cc(OC)c1
3. CC(Nc1ccccc1)c1cccnc1 (stereo not given)
4. Oc1c(Cl)cc(Cl)c(Cl)c1Cc1c(O)c(Cl)cc(Cl)c1Cl
5. CN(Cc1ccccc1)C(=O)CCNC(=O)Cn1cnc2ccccc2c1=O
6. Cc1ccc(CCNC(=O)C2CCN(S(=O)(=O)N3CCCC3)CC2)cc1

1: 38.7; 2: -30.1; 3: -7.91; 4: 3.71; 5: 33.4; 6: -6.28

Record request: activation value, item "O=C(CC(O)(C(F)(F)F)C(F)(F)F)Nc1ccc(Cl)c(Cl)c1"
-22.8

###

# ASSAY NAME: beta-lactamase reporter inhibitors in CHO cells, artefact control for TLR9-MyD88 binding inhibitor project, cell-based, fluorescence (AID 540251);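 also: counterscreen of TLR9-MyD88 hits on CMV-driven BLA in CHO-K1 cells; 0% = DMSO alone and 100% = clavulanate blocking BLA; higher means less blue over green ratio so more BLA blockade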
# CONDITION SET: CHO-BLA cells, CCF4 FRET ratio, at 4.98 µM, active compounds read high
This is one part of the list.
MEASURE: inhibition (%)
Numbers only, in %.

- MOLECULE: "COc1ccccc1/C=C/C(=O)OCC(=O)NC1CCCCCC1"
  UNIT NAME: "%"
  NUMERIC RESULT: -6.03

Hey, can you go through the list below and give me inhibition for every item?
1. O=C(CCN1C(=O)c2ccccc2C1=O)NNC(=O)c1ccc(Cl)cc1Cl
2. COc1ccccc1CSc1ncc(-c2ccc([N+](=O)[O-])cc2)[nH]1
3. Cc1cccc2cc3c(N)c(C(=O)N4CCCc5ccccc54)sc3nc12
4. COc1ccc(OC)c(N=Cc2c(O)[nH]c3ccccc23)c1
5. CCOc1ccc(C2=CC(c3ccccc3)n3ncnc3N2)cc1 (configuration not stated)
6. O=C(COC(=O)c1c2c(nc3ccccc13)/C(=C\c1cccs1)CCC2)Nc1ccccc1Cl
7. CS(=O)(=O)c1sc2nc(-c3ccccc3)cc(-c3ccccc3)c2c1N
8. COC(=O)Cc1cc(=O)oc2c(C)c(O)ccc12

[-2.36, 9.21, 12.7, 1.7, -1.41, 18.4, 31.6, 16.3]

Hey, can you go through the list below and give me inhibition for every item?
1. O=C1c2cccc3c([N+](=O)[O-])ccc(c23)C(=O)N1CC1CCCO1 (configuration not stated)
2. O=[N+]([O-])c1c(NCCO)cc(Sc2nc3ccccc3s2)c2nonc12

1. 73.2
2. 17.3

Hey, can you go through the list below and give me inhibition for every item?
1. Cc1cccc(CS(=O)(=O)c2ncc(Cl)c(C(=O)Nc3ccc(F)cc3)n2)c1
2. O=C(Nc1ccccc1Cl)/C(Cl)=C(\Cl)S(=O)c1ccccc1 (configuration not stated)
3. COc1cc(/C=C(\C#N)c2nc3c(s2)CC(C)CC3)ccc1O (configuration not stated)
4. O=C1NC(=O)C2C1C(c1ccc([N+](=O)[O-])cc1)=NN2Cc1ccccc1 (configuration not stated)
5. CC1(C)CC(=O)C(C2c3ccccc3S(=O)(=O)c3ccccc32)C(=O)C1
6. COc1cc(C(=O)N2C(=O)c3cccc(N)c3C2=O)cc(OC)c1OC

20.7
24.5
17
25.6
-0.53
13.3

###

# STUDY TARGET: Photoreceptor-specific nuclear receptor (Homo sapiens) (UniProt Q9Y5X4)
# Sequence (Q9Y5X4 whole entry, looked up): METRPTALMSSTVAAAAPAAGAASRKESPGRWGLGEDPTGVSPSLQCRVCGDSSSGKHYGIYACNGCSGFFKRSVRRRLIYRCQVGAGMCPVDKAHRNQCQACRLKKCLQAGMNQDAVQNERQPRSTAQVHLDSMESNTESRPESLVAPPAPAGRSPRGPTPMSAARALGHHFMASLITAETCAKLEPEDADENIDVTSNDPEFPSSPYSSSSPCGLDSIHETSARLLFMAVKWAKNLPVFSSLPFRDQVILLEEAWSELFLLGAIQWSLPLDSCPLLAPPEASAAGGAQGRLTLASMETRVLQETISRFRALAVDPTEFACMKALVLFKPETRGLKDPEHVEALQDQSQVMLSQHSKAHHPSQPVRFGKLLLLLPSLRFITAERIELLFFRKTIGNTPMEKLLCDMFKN
# ASSAY NAME: NR2E3 agonist confirmation in cells, cell-based, luminescence, CHO-S two-hybrid (AID 624378);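 also: 0% = DMSO in NR2E3 cells and 100% = DMSO in cells lacking NR2E3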
# CONDITION SET: CHO-S mammalian two-hybrid NR2E3-NCOR, luciferase luminescence; at 3.98 µM
This is one part of the list. Calls of active or inactive are those of the source.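 Rule for the calls: active = average inhibition above a cutoff equal to the mean inhibition of all tested compounds plus one SD (cut at about 70% in these data); inactive = the rest.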
Please answer using one outcome listed in class 1 = active, class 0 = inactive

- COMPOUND: "Cc1ccc(F)cc1NC(=O)Cc1nn(C)c(=O)c2ccccc12"
  ASSIGNED CATEGORY: "class 0"
- COMPOUND: "CN(Cc1cccnc1)C(=O)c1cc(COc2ccc3ncccc3c2)on1"
  ASSIGNED CATEGORY: "class 1"

Just curious, what result did "Cc1ccc(OCC(=O)c2cc(C)n(Cc3ccco3)c2C)c([N+](=O)[O-])n1" get here?
class 0

And what about the compound "COc1cnc(-c2ccccn2)nc1Oc1ccc(C(C)(C)C)cc1" ?
class 0

###

# ASSAY NAME: VP16 transactivation inhibitors, counter-screen for SRC1 inhibitor project, cell-based, luminescence, high throughput (AID 588824)
# CONDITION SET: cell-based VP16 transactivation luciferase luminescence; at 3.6 µM; active compounds read high
Would you kindly list inhibition for each of these molecules?
One number for each entry, in %.

Hey, can you go through the list below and give me inhibition for every item?
1. COc1ccc2c(C#N)c3ccccn3c2c1
2. S=C(Nc1ccccc1)Nc1ccc(OCc2ccc(Cl)cc2Cl)cc1
3. CC(C)c1ccc(-c2csc(NC(=O)c3cccs3)c2C(=O)O)cc1

1: 7.81; 2: 24.4; 3: 33.9

Hey, can you go through the list below and give me inhibition for every item?
1. COc1cccc(CN(C)C(=O)c2ccc(OCC(=O)Nc3cccc(C(F)(F)F)c3)c(OC)c2)c1
2. CCOC(=O)c1c(C)c2c(=O)[nH]cnc2n1-c1ccccc1
3. CN(C)c1cc[n+](CC(=O)c2ccc(-c3ccccc3)cc2)cc1

[35.6, 39.9, 66.5]

Hey, can you go through the list below and give me inhibition for every item?
1. Cc1ccc(-c2nc(-c3ccccn3)no2)cc1
2. O=C(NC1CCCN(Cc2ccccc2F)C1)c1cccc(N2CCCC2=O)c1 (stereo unspecified)

[43.9, -1.08]

Hey, can you go through the list below and give me inhibition for every item?
1. CCCN(CCC)C1=CC(=[N+]2CCCC2)CC(C)(C)C1
2. O=C(NCc1ccco1)c1cccc(NC(=O)c2ccccc2)c1
3. CCc1nnc(SCc2ccc(C(=O)OC)o2)n1N

1. 55.3
2. 53.1
3. 4.87
